Origin of measurements: PubChem BioAssay

Experiment: loss of swimming-algae plug formation – whole organism, Chlamydomonas reinhardtii, WT vs cilia-less mutant, absorbance, 96-well, primary screen (AID 463189);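 note: 0% = wild type cc124 cells in DMSO and 100% = ciliumless bld1 mutant cells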
Details: Chlamydomonas reinhardtii gravitaxis, OD600 absorbance, 2 days; at 10 µM; stronger effect = higher value
Attribute: inhibition
Numeric answer only, unit % assumed.

Example compounds with recorded inhibition:
| compound | inhibition, % |
| --- | --- |
| Nc1ncnc2c1nc(Br)n2C1OC2COP(=O)(O)O[C@@H]2C1O (stereo partly drawn) | 7.89 |
| N#CC(Cc1ccc(O)c(O)c1)C(=O)N1CCc2ccccc21 (stereo not drawn) | 0.886 |
| COCc1nc2c([nH]1)c(=O)n(C)c(=O)n2CC(C)C | 1.31 |
| CC1=C(CC(=O)O)c2cc(F)ccc2/C1=C\c1ccc(S(C)(=O)=O)cc1 | 2.22 |
| C#CCN(C)CCCOc1ccc(Cl)cc1Cl | 24.1 |

Lab note: CC(=O)CCCCn1c(=O)c2c(ncn2C)n(C)c1=O gave inhibition of -0.901

// field: inhibition; key: Nc1ncnc2c1c(-c1ccc(Oc3ccccc3)cc1)cn2C1CCCC1 ; value = 35.3

Kindly note the recorded inhibition for CN(C)CCCCSC(=N)N , which is 0.024
